# System: S. aureus ATCC 29213
# Format: cell-based
Peptide text beside a SMILES is read from it. * marks the point of attachment. Acetyl(1-adamantyl) = O=C(CC12CC3CC(CC(C3)C1)C2)*

COMPOUND	MIC
N=C(N)NCCC[C@H](NC(=O)[C@@H]1CCCN1C(=O)CNC(=O)[C@@H]1CCCN1C(=O)[C@H](CCCNC(=N)N)NC(=O)[C@@H]1CCCN1C(=O)CC12CC3CC(CC(C3)C1)C2)C(=O)N1CCC[C@H]1C(N)=O [Ad-PGP, Adamantyl-CH2CO-PRPGPRP-NH2] ({Acetyl(1-adamantyl)}-PRPGPRP-NH2)	>128 µg/mL
